tested on: MRAB (A. baumannii) ATCC BAA 1605; assay type: cell-based, Acinetobacter baumannii; details: ATCC BAA 1605, 18 h
Square brackets hold non-standard residues; d marks the D form. Peptide text beside a SMILES is read from it.

{"molecule": "CC(C)[C@@H](NC(=O)[C@@H](Cc1c[nH]c2ccccc12)NC(=O)[C@H](NC(=O)[C@H](NC(=O)[C@@H](Cc1c[nH]c2ccccc12)NC(=O)[C@@H](CCCNC(=N)N)NC(=O)[C@@H](CCCNC(=N)N)NC(=O)[C@H](N)CCCNC(=N)N)C(C)C)C(C)C)C(=O)N[C@@H](C(=O)N[C@H](Cc1c[nH]c2ccccc12)C(N)=O)C(C)C [KSH84, rrrwvvwvvw] (H-[dR][dR][dR][dW][dV][dV][dW][dV][dV][dW]-NH2; N-terminus assumed)", "assayed.system": "MRAB (A. baumannii) ATCC BAA 1605", "MIC MRAB (A. baumannii) ATCC BAA 1605 / µM": 10}

----------
system: MRAB (A. baumannii) ATCC BAA 1605; format: cell-based, Acinetobacter baumannii; details: ATCC BAA 1605, 18 h
Square brackets hold non-standard residues; d marks the D form. Peptide text beside a SMILES is read from it. * marks the point of attachment. Decanoyl = CCCCCCCCCC(=O)*
MIC MRAB (A. baumannii) ATCC BAA 1605 reference

{"compound": "CCCCCCCCCC(=O)NCCCC[C@@H](N)C(=O)N[C@H](Cc1c[nH]c2ccccc12)C(=O)N[C@H](CC(C)C)C(=O)N[C@H](CC(C)C)C(=O)N[C@H](Cc1c[nH]c2ccccc12)C(=O)N[C@@H](C(=O)NCC(=O)N[C@H](CC(C)C)C(=O)N[C@H](CCCNC(=N)N)C(=O)N[C@H](CCCCN)C(=O)N[C@H](CCCCN)C(=O)N[C@H](CCCNC(=N)N)C(N)=O)[C@H](C)CC [KSH10, kwllwiglrkkr] (H-[dK](Decanoyl)[dW][dL][dL][dW][dI]G[dL][dR][dK][dK][dR]-NH2; N-terminus assumed)", "readout.qualifier": ">", "MIC MRAB (A. baumannii) ATCC BAA 1605 [µM]": 20}
{"compound": "CC(C)[C@@H](NC(=O)[C@@H](Cc1c[nH]c2ccccc12)NC(=O)[C@H](NC(=O)[C@H](NC(=O)[C@@H](Cc1c[nH]c2ccccc12)NC(=O)[C@@H](CCCNC(=N)N)NC(=O)[C@@H](CCCNC(=N)N)NC(=O)[C@H](N)CCCNC(=N)N)C(C)C)C(C)C)C(=O)N[C@H](Cc1c[nH]c2ccccc12)C(=O)N[C@H](Cc1c[nH]c2ccccc12)C(N)=O [KSH83, rrrwvvwvww] (H-[dR][dR][dR][dW][dV][dV][dW][dV][dW][dW]-NH2; N-terminus assumed)", "readout.qualifier": "=", "MIC MRAB (A. baumannii) ATCC BAA 1605 [µM]": 10}

----------
test: Solubility of antibacterial peptides in solution; type: physicochemical; details: plasma or biological fluid; CAMHB; peptide 25 to 200 µM, 12 hours at room temperature; read-out: Solubility in solution CAMHB

{"compound": "CN[C@H](CC(C)C)C(=O)N[C@H]1C(=O)N[C@@H](CC(N)=O)C(=O)N[C@H]2C(=O)N[C@H]3C(=O)N[C@H](C(=O)N[C@H](C(=O)O)c4cc(O)cc(O)c4-c4cc3ccc4O)[C@H](O)c3ccc(c(Cl)c3)Oc3cc2cc(c3O[C@@H]2O[C@H](CO)[C@@H](O)[C@H](O)[C@H]2O[C@H]2C[C@](C)(N)[C@H](O)[C@H](C)O2)Oc2ccc(cc2Cl)[C@H]1O [Vancomycin, reference compound]", "solubility at 12 h": "> 200 µM"}

----------
tested on: VRE (E. faecalis) ATCC 51575; assay type: cell-based, Enterococcus faecalis; details: ATCC 51575, 18 h
Square brackets hold non-standard residues; d marks the D form. Peptide text beside a SMILES is read from it. * marks the point of attachment. Decanoyl = CCCCCCCCCC(=O)*
observable: MIC VRE (E. faecalis) ATCC 51575 (µM)

{"molecule": "CC[C@@H](C)[C@@H](NC(=O)[C@@H](Cc1c[nH]c2ccccc12)NC(=O)[C@@H](CCCCN)NC(=O)[C@@H](CCCCN)NC(=O)[C@H](N)CCCCN)C(=O)N[C@H](Cc1c[nH]c2ccccc12)C(=O)N[C@@H](C(=O)N[C@H](CC(C)C)C(=O)N[C@H](Cc1c[nH]c2ccccc12)C(=O)N[C@H](CCCCN)C(N)=O)C(C)C [KSH46, kkkwiwvlwk] (H-[dK][dK][dK][dW][dI][dW][dV][dL][dW][dK]-NH2; N-terminus assumed)", "observable": "MIC VRE (E. faecalis) ATCC 51575", "units.text": "µM", "readout.qualifier": "=", "numeric.readout": 1.25}
{"molecule": "CC[C@@H](C)[C@@H](NC(=O)[C@@H](Cc1c[nH]c2ccccc12)NC(=O)[C@@H](CCCNC(=N)N)NC(=O)[C@H](N)CCCNC(=N)N)C(=O)N[C@H](Cc1c[nH]c2ccccc12)C(=O)N[C@@H](C(=O)N[C@H](CC(C)C)C(=O)N[C@H](Cc1c[nH]c2ccccc12)C(=O)N[C@@H](CCCNC(=N)N)C(N)=O)C(C)C [KSH55, rrwiwvlwR] (H-[dR][dR][dW][dI][dW][dV][dL][dW]R-NH2; N-terminus assumed)", "observable": "MIC VRE (E. faecalis) ATCC 51575", "units.text": "µM", "readout.qualifier": "=", "numeric.readout": 0.63}
{"molecule": "CCCCCCCCCC(=O)NCCCC[C@@H](NC(=O)[C@@H](CCCCN)NC(=O)[C@@H](CCCNC(=N)N)NC(=O)[C@@H](CC(C)C)NC(=O)[C@@H](C)NC(=O)[C@H](NC(=O)[C@@H](Cc1c[nH]c2ccccc12)NC(=O)[C@@H](CC(C)C)NC(=O)[C@@H](CC(C)C)NC(=O)[C@H](N)Cc1c[nH]c2ccccc12)[C@H](C)CC)C(N)=O [KSH7, wllwialrkk] (H-[dW][dL][dL][dW][dI][dA][dL][dR][dK][dK](Decanoyl)-NH2; N-terminus assumed)", "observable": "MIC VRE (E. faecalis) ATCC 51575", "units.text": "µM", "readout.qualifier": "=", "numeric.readout": 10}
{"molecule": "CC[C@@H](C)[C@@H](NC(=O)[C@H](N)Cc1c[nH]c2ccccc12)C(=O)N[C@@H](C(=O)N[C@H](Cc1c[nH]c2ccccc12)C(=O)N[C@@H](C(=O)N[C@H](Cc1c[nH]c2ccccc12)C(=O)N[C@H](CCCNC(=N)N)C(=O)N[C@H](CCCNC(=N)N)C(=O)N[C@H](CCCNC(=N)N)C(N)=O)[C@H](C)CC)[C@H](C)CC [KSH61, wiiwiwrrr] (H-[dW][dI][dI][dW][dI][dW][dR][dR][dR]-NH2; N-terminus assumed)", "observable": "MIC VRE (E. faecalis) ATCC 51575", "units.text": "µM", "readout.qualifier": "=", "numeric.readout": 0.63}
{"molecule": "CC[C@@H](C)[C@@H](NC(=O)[C@@H](Cc1c[nH]c2ccccc12)NC(=O)[C@@H](C)NC(=O)[C@@H](C)NC(=O)[C@H](N)Cc1c[nH]c2ccccc12)C(=O)NCC(=O)N[C@H](CC(C)C)C(=O)N[C@H](CCCNC(=N)N)C(=O)N[C@H](CCCNC(=N)N)C(=O)N[C@H](CCCNC(=N)N)C(N)=O [KSH69, waawiglrrr] (H-[dW][dA][dA][dW][dI]G[dL][dR][dR][dR]-NH2; N-terminus assumed)", "observable": "MIC VRE (E. faecalis) ATCC 51575", "units.text": "µM", "readout.qualifier": ">", "numeric.readout": 10}
{"molecule": "CC[C@@H](C)[C@@H](NC(=O)[C@@H](Cc1c[nH]c2ccccc12)NC(=O)[C@@H](CCCNC(=N)N)NC(=O)[C@H](N)CCCNC(=N)N)C(=O)N[C@H](Cc1c[nH]c2ccccc12)C(=O)N[C@@H](C(=O)N[C@H](CC(C)C)C(=O)N[C@H](Cc1c[nH]c2ccccc12)C(=O)N[C@H](CCCNC(=N)N)C(N)=O)C(C)C [KSH54, rrwiwvlwr] (H-[dR][dR][dW][dI][dW][dV][dL][dW][dR]-NH2; N-terminus assumed)", "observable": "MIC VRE (E. faecalis) ATCC 51575", "units.text": "µM", "readout.qualifier": "=", "numeric.readout": 0.63}
{"molecule": "CC[C@@H](C)[C@@H](NC(=O)[C@@H](Cc1c[nH]c2ccccc12)NC(=O)[C@@H](CCCNC(=N)N)NC(=O)[C@@H](CCCNC(=N)N)NC(=O)[C@H](N)CCCNC(=N)N)C(=O)N[C@H](Cc1c[nH]c2ccccc12)C(=O)N[C@@H](C(=O)N[C@@H](C(=O)N[C@H](Cc1c[nH]c2ccccc12)C(N)=O)[C@H](C)CC)[C@H](C)CC [KSH60, rrrwiwiiw] (H-[dR][dR][dR][dW][dI][dW][dI][dI][dW]-NH2; N-terminus assumed)", "observable": "MIC VRE (E. faecalis) ATCC 51575", "units.text": "µM", "readout.qualifier": "=", "numeric.readout": 0.63}
{"molecule": "CC[C@H](C)[C@H](NC(=O)[C@H](Cc1c[nH]c2ccccc12)NC(=O)[C@@H](NC(=O)[C@H](CC(C)C)NC(=O)[C@@H](N)Cc1c[nH]c2ccccc12)C(C)C)C(=O)N[C@@H](Cc1c[nH]c2ccccc12)C(=O)N[C@@H](CCCNC(=N)N)C(=O)N[C@@H](CCCCN)C(=O)N[C@@H](CCCCN)C(=O)N[C@@H](CCCNC(=N)N)C(N)=O [LSH28]", "observable": "MIC VRE (E. faecalis) ATCC 51575", "units.text": "µM", "readout.qualifier": "=", "numeric.readout": 10}
{"molecule": "CC(C)[C@@H](NC(=O)[C@@H](Cc1c[nH]c2ccccc12)NC(=O)[C@@H](CCCNC(=N)N)NC(=O)[C@@H](CCCNC(=N)N)NC(=O)[C@H](N)CCCNC(=N)N)C(=O)N[C@@H](C(=O)N[C@@H](C(=O)N[C@@H](C(=O)N[C@H](Cc1c[nH]c2ccccc12)C(=O)N[C@H](Cc1c[nH]c2ccccc12)C(N)=O)C(C)C)C(C)C)C(C)C [KSH85, rrrwvvvvww] (H-[dR][dR][dR][dW][dV][dV][dV][dV][dW][dW]-NH2; N-terminus assumed)", "observable": "MIC VRE (E. faecalis) ATCC 51575", "units.text": "µM", "readout.qualifier": "=", "numeric.readout": 1.25}
